pIC50 listing for selected compounds.
molecular target: human CYP4A11 (Homo sapiens (Human), UniProt Q02928); test: Inhibition test against 20-HETE producing enzyme CYP4A11 (luciferine derivative, luminescence); assay type: biochemical; conditions: human CYP4A11, luciferine derivative, luminescence
Sequence (Q02928 5-519): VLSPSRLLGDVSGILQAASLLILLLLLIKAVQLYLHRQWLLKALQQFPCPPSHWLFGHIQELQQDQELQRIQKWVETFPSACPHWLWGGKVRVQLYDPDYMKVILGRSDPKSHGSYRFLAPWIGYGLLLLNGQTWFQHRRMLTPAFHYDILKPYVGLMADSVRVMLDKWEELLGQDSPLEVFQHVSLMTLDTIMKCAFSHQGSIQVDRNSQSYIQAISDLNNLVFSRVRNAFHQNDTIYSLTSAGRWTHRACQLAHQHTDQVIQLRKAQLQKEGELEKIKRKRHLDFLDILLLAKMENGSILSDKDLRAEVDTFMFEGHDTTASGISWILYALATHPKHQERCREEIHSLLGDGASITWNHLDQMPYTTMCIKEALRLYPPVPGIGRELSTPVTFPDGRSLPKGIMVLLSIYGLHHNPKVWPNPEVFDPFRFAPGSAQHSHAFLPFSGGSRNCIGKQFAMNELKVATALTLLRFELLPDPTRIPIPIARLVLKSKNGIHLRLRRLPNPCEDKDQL
In textbook form, pIC50 equals minus log to base ten of the concentration in mol/L.

Consider the following illustrative entries.
O=C(CCc1cccc(COc2ccc(-c3ccn[nH]3)nc2)c1)N1CCCCC1
6.62
O=C(O)[C@H]1C[C@@H]1c1ccc(CCOc2ccc(-c3ccn[nH]3)nc2)cc1
6.35
O=C(O)C1CCc2ccc(COc3ccc(-c4[nH]ncc4Cl)nc3)cc2O1 (single isomer, unassigned) [Example 75-8]
7.17
O=C(O)C1(Cc2ccc(CCOc3ccc(-c4ccn[nH]4)nc3)cc2)COC1
6.29
CC(C)(Cc1ccc(CCOc2ccc(-c3ccn[nH]3)nc2)cn1)C(=O)O
5.80

Please examine the following record next.
pIC50 on human CYP4A11 (Homo sapiens (Human), UniProt Q02928) for CC(C)(OCCCCCCCOc1ccc(-c2cnco2)nc1)C(=O)O is 6.13

----------
target: human CYP4A11 (Homo sapiens (Human), UniProt Q02928); assay: Inhibition test against 20-HETE producing enzyme CYP4A11 (luciferine derivative, luminescence); format: biochemical; conditions: human CYP4A11, luciferine derivative, luminescence
IC50 under 200 nM gets yes (1), anything at or over 200 nM gets no (0).

Query string: Consider O=C(O)[C@H]1CCCN(C(=O)c2cccc(COc3ccc(-c4ccn[nH]4)nc3)c2)C1 . Does its IC50 lie strictly below 200 nM?
Result string: yes (1)

Query string: Does the reported IC50 of C[C@H](CO)NC(=O)CCc1cccc(COc2ccc(-c3ccn[nH]3)nc2)c1 stay below 200 nM?
Result string: yes (1)

Query string: Hello, is IC50 of the following compound strictly smaller than 200 nM? O=C(NCc1ccccc1C(=O)O)c1cccc(COc2ccc(-c3ccn[nH]3)nc2)c1
Result string: yes (1)

Query string: In the record for O=C(O)CCc1cccc(COc2ccc(-c3ccn[nH]3)nc2)c1F , is IC50 less than 200 nM?
Result string: yes (1)

Query string: Please determine if O=C(CCc1cccc(COc2ccc(-c3ccn[nH]3)nc2)c1)N1CCOCC1 is below 200 nM in terms of IC50.
Result string: no (0)

----------
Parameter: IC50. Scope: all listed entries.
target: UniProt Q02928; experiment: Inhibition test against 20-HETE producing enzyme CYP4A11 (luciferine derivative, luminescence); format: biochemical; conditions: human CYP4A11, luciferine derivative, luminescence
// units = nM; emit number, no label

O=C(CCc1cccc(COc2ccc(-c3ccn[nH]3)nc2)c1)N1CC(F)(F)C1
59
O=C(O)C1CC(c2cccc(CCOc3ccc(-c4ccn[nH]4)nc3)c2)C1 (centres unmarked)
53
O=C(O)C[C@@H]1CCN(C(=O)c2cccc(COc3ccc(-c4ccn[nH]4)nc3)c2)C1
410
CN(CCO)C(=O)CCc1cccc(COc2ccc(-c3ccn[nH]3)nc2)c1
310
O=C(O)c1nc2c(o1)CCN(C(=O)c1cccc(COc3ccc(-c4ccn[nH]4)nc3)c1)C2
160
O=C(O)[C@H]1C[C@@H]1c1cccc(CCOc2ccc(-c3ccn[nH]3)nc2)c1F
82

Kindly note: UniProt Q02928, O=C(N[C@H]1CC[C@@H](C(=O)O)CC1)c1cccc(COc2ccc(-c3ccn[nH]3)nc2)c1 , IC50 value reported: 1000

Kindly note: UniProt Q02928, O=C(O)C1CC2CCC(C1)N2C(=O)c1cccc(COc2ccc(-c3ccn[nH]3)nc2)c1 (centres unmarked) , IC50 value reported: 2000

UniProt Q02928 assay, molecule O=C(O)C1CC1c1ccc(CCOc2ccc(-c3ccn[nH]3)nc2)c(F)c1 (single isomer, unassigned) [Example 71-18] , recorded IC50 = 110

Log: UniProt Q02928, molecule CN(C(C)(C)C(=O)O)S(=O)(=O)c1cccc(COc2ccc(-c3ccn[nH]3)nc2)c1 , IC50 = 43

Measured IC50 (UniProt Q02928), entry O=C(O)[C@H]1COc2ccc(COc3ccc(-c4ccn[nH]4)nc3)cc2C1 : 36

----------
target: human CYP4F2 (Homo sapiens (Human)); experiment: Inhibition test against 20-HETE producing enzyme CYP4F2 (luciferine derivative, luminescence); format: biochemical; conditions: E. coli membrane fraction expressing human CYP4F2, 2.5 μM luciferine derivative, room temperature 60 minutes
Sequence (P78329 5-520): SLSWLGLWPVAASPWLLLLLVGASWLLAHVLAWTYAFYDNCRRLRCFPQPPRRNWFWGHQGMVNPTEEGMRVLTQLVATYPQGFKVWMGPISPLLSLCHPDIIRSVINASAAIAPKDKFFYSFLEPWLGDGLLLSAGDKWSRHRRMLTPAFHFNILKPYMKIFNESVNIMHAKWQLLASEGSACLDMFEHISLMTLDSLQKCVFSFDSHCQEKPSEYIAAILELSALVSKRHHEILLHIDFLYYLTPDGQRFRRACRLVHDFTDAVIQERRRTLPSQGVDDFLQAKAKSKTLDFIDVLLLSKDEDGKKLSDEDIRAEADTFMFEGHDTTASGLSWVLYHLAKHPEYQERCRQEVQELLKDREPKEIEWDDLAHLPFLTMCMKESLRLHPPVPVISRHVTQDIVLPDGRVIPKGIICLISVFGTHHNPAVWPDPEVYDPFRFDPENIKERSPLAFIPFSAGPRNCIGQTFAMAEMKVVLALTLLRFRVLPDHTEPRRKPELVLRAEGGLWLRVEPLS
Note that class boundaries on IC50 are A: < 0.2 µM; B: ≥ 0.2 µM and < 2 µM; C: ≥ 2 µM

Past entries and their recorded results:
CC(C)(Oc1cccc(COc2ccc(-c3ccn[nH]3)nc2)n1)C(=O)O [Example 1-66]
C
CC(C)(OCCCOCCCCOc1ccc(-c2ccn[nH]2)nc1)C(=O)O [Example 9-3]
B
O=C(O)C(F)(F)c1cccc(COc2ccc(-c3ccn[nH]3)nc2)c1 [Example 60-1]
C
O=C(O)c1ccc(CCCCOc2ccc(-c3ccn[nH]3)nc2)cn1 [Example 29-4]
B
CS(=O)(=O)c1cc(O)cc(COc2ccc(-c3[nH]ncc3Cl)nc2)c1 [Example 66-1]
A
O=C(O)c1cccc(CC(=O)N2CCC[C@@H](COc3ccc(-c4ccn[nH]4)nc3)C2)c1 [Example 46-5]
C

Query string: Bin? CC(C)(COCCCCCCOc1ccc(-c2ccn[nH]2)nc1)C(=O)O [Example 1-57]
Result string: B

Query string: // return the class label for O=C(O)CC[C@H]1CCC[C@@H](COc2ccc(-c3ccn[nH]3)nc2)C1 (racemic) [Example 2-6]
Result string: B

Query string: # bin lookup: classify O=C(O)c1cccc(CCCCOc2ccc(-c3ccn[nH]3)nc2)n1 [Example 29-5] by its IC50
Result string: B

Query string: Given CC(C)(CCCCCCCOc1ccc(-c2ccn[nH]2)nc1)C(=O)O [Example 1-62] , name the class its IC50 places it in.
Result string: A

Query string: Hey, which category is O=C(O)CCc1cccc(COc2ccc(-c3ccn[nH]3)nc2)c1 [Example 22-4] in, do you know?
Result string: B

Query string: Which category does the recorded IC50 put O=C(O)C1CCc2ccc(COc3ccc(-c4ccn[nH]4)nc3)cc2C1 (stereo not shown) [Example 1-56] in?
Result string: A

Query string: Band for O=c1[nH]c(CCCCCOc2ccc(-c3ccn[nH]3)nc2)no1 [Example 62-2] ?
Result string: B

Query string: Bin? Cc1ccc(COc2ccc(-c3ccn[nH]3)nc2)cc1O [Example 12-1]
Result string: A

Query string: Could you place O=C(O)C1(OCCOCCCCOc2ccc(-c3ccn[nH]3)nc2)CCCC1 [Example 2-4] in its proper category? Many thanks.
Result string: B

Query string: Hello team, could you let me know which band the following molecule falls into: CC(C)(OCCCCCCCOc1ccc(-c2ccn[nH]2)nc1)C(=O)O [Example 15-1]
Result string: B

----------
molecular target: human CYP4F2 (Homo sapiens (Human)); test: Inhibition test against 20-HETE producing enzyme CYP4F2 (luciferine derivative, luminescence); format: biochemical; conditions: E. coli membrane fraction expressing human CYP4F2, 2.5 μM luciferine derivative, room temperature 60 minutes
Measured IC50 of individual entries
Express the result in nM but write the number alone.

Memo: NC(=O)c1cccc(COc2ccc(-c3ccn[nH]3)nc2)c1 , reported IC50: 190

----------
target: UniProtKB P78329; test: Inhibition test against 20-HETE producing enzyme CYP4F2 (luciferine derivative, luminescence); assay type: biochemical; settings: human CYP4F2, luciferine derivative, luminescence
pIC50: −log10 of the molar value.
Threshold check on pIC50: at or above 6 gives 1.0, strictly below gives 0.0.

O=C(O)C1(OCCCCCCCOc2ccc(-c3ccn[nH]3)nc2)COC1
1.0
CC(C)(CNC(=O)c1cccc(COc2ccc(-c3ccn[nH]3)nc2)c1)C(=O)O
0.0
CN(CCC(=O)O)C(=O)c1cccc(COc2ccc(-c3ccn[nH]3)nc2)c1
0.0
O=C(O)[C@@H]1CCCN1C(=O)c1cccc(COc2ccc(-c3ccn[nH]3)nc2)c1
0.0

Query string: Check the entry CC(C)(CCNC(=O)c1cccc(COc2ccc(-c3ccn[nH]3)nc2)c1)C(=O)O : does pIC50 equal or exceed 6?
Result string: 1.0

Query string: Exam item: decide whether the reported pIC50 for O=C(O)[C@H]1C[C@@H]1c1cccc(CCOc2ccc(-c3ccn[nH]3)nc2)c1F is at least 6.
Result string: 1.0

Query string: Test whether the compound CC(C)(Oc1cc(CCCOc2ccc(-c3ccn[nH]3)nc2)ccn1)C(=O)O records pIC50 of 6 or higher.
Result string: 0.0

Query string: Reported pIC50 at or above 6? CN(CCC(C)(C)C(=O)O)C(=O)c1cccc(COc2ccc(-c3ccn[nH]3)nc2)c1
Result string: 1.0

Query string: I'd appreciate it if you could say whether CC(C)(CCNC(=O)c1cccc(COc2ccc(-c3ccn[nH]3)nc2)n1)C(=O)O has pIC50 at least equal to 6.
Result string: 0.0

Query string: Reported pIC50 reaches at least 6 for O=C(NC12CC(C(=O)O)(C1)C2)c1cccc(COc2ccc(-c3ccn[nH]3)nc2)c1 ?
Result string: 0.0
